# Tested on: Alopecurus myosuroides
# EXPERIMENT: Pre-emergence herbicidal action, ALOMY
# Format: in vivo
# CONDITION DETAILS: dosage 320 g/ha, scored visually after 3 weeks vs untreated controls
PROPERTY: herbicidal activity ALOMY (%)
The figure you give is taken to be in %; do not add the unit.

>>> experimental_result("Cn1nnnc1NC(=O)c1ccc(C(F)F)c([S+](C)[O-])c1Br (stereo not shown)")
100
>>> experimental_result("CC[S+]([O-])c1c(C(F)F)ccc(C(=O)Nc2nnnn2C)c1Cl (stereo not shown)")
100
>>> experimental_result("Cn1nnnc1NC(=O)c1ccc(C(F)F)c(S(C)(=O)=O)c1Cl")
100
>>> experimental_result("CCn1nnnc1NC(=O)c1ccc(C(F)F)c(S(C)(=O)=O)c1Br")
100

What is its herbicidal activity ALOMY for Alopecurus myosuroides? Entry: CCn1nnnc1NC(=O)c1ccc(C(F)F)c(SC)c1C1CC1
100

Request: herbicidal activity ALOMY, test system Alopecurus myosuroides, entry CC[S+]([O-])c1c(C(F)F)ccc(C(=O)Nc2nnnn2C)c1F (stereo not shown)
100

Observed herbicidal activity ALOMY on Alopecurus myosuroides for CCc1c(C(=O)Nc2nnc(C)o2)ccc(C(F)F)c1S(=O)(=O)CC , please.
100

Reported herbicidal activity ALOMY for Alopecurus myosuroides, given Cc1nnc(NC(=O)c2ccc(C(F)F)c([S+](C)[O-])c2C)o1 (stereo not shown) ?
90

Identify the measured herbicidal activity ALOMY of CSc1c(C(F)F)ccc(C(=O)Nc2nnnn2C)c1Cl for Alopecurus myosuroides.
100

For Alopecurus myosuroides, provide herbicidal activity ALOMY of CCSc1c(C(F)F)ccc(C(=O)Nc2nnnn2C)c1F please.
100

I'm curious: which herbicidal activity ALOMY was measured for CCSc1c(C(F)F)ccc(C(=O)Nc2nnc(C)o2)c1CC tested on Alopecurus myosuroides?
100

Tell me reported herbicidal activity ALOMY for CCSc1c(C(F)F)ccc(C(=O)Nc2ncnn2C)c1Br , tested with Alopecurus myosuroides.
90

Reported herbicidal activity ALOMY for Alopecurus myosuroides, given CSc1c(C(F)F)ccc(C(=O)Nc2nnnn2C)c1F ?
100

Lab note: need herbicidal activity ALOMY for CCCn1nnnc1NC(=O)c1ccc(C(F)F)c(SC)c1C on Alopecurus myosuroides, anyone have it?
100

Give herbicidal activity ALOMY (Alopecurus myosuroides) of the following molecule: CCn1nnnc1NC(=O)c1ccc(C(F)F)c([S+](C)[O-])c1F (stereo not shown)
100

For Alopecurus myosuroides, provide herbicidal activity ALOMY of CSc1c(C(F)F)ccc(C(=O)Nc2nnc(C)o2)c1Cl please.
90

Item: CCn1nnnc1NC(=O)c1ccc(C(F)F)c([S+]([O-])CC)c1C1CC1 (stereo not shown) Test system: Alopecurus myosuroides Read-out: herbicidal activity ALOMY Value: ?
100

Param readout = herbicidal activity ALOMY; param system = Alopecurus myosuroides; param query = CC[S+]([O-])c1c(C(F)F)ccc(C(=O)Nc2nnnn2C)c1C (stereo not shown) ; response: value
100

Query the reported herbicidal activity ALOMY for Alopecurus myosuroides; item: CC[S+]([O-])c1c(C(F)F)ccc(C(=O)Nc2nnc(C)o2)c1I (stereo not shown)
100

* * *

# Test system: Amaranthus retroflexus
# EXPERIMENT: Post-emergence herbicidal action, AMARE
# Assay type: in vivo
# CONDITION DETAILS: 80 g/ha, Table D
PROPERTY: herbicidal activity AMARE (%)
# unit: % | format: bare number

Reference set, count: 6
>>> experimental_result("CCn1nnnc1NC(=O)c1ccc(C(F)F)c(S(C)(=O)=O)c1Br")
100
>>> experimental_result("CCn1nnnc1NC(=O)c1ccc(C(F)F)c(S(C)(=O)=O)c1C")
80
>>> experimental_result("CCc1c(C(=O)Nc2nnnn2CC)ccc(C(F)F)c1[S+](C)[O-] (stereo not drawn)")
100
>>> experimental_result("CCc1c(C(=O)Nc2nnc(C)o2)ccc(C(F)F)c1[S+]([O-])CC (stereo not drawn)")
100
>>> experimental_result("CSc1c(C(F)F)ccc(C(=O)Nc2nnc(C)o2)c1C")
100
>>> experimental_result("CCn1nnnc1NC(=O)c1ccc(C(F)F)c(S(C)(=O)=O)c1Cl")
100

Which herbicidal activity AMARE is listed for Cn1nnnc1NC(=O)c1ccc(C(F)F)c([S+](C)[O-])c1I (stereo not drawn) ?
100

Bench note: what herbicidal activity AMARE did CC[S+]([O-])c1c(C(F)F)ccc(C(=O)Nc2nnnn2C)c1F (stereo not drawn) show?
100

What does the data say about its herbicidal activity AMARE? Entry: Cn1nnnc1NC(=O)c1ccc(C(F)F)c(S(C)(=O)=O)c1C1CC1
100

* * *

# Tested on: Alopecurus myosuroides
# EXPERIMENT: Pre-emergence herbicidal action, ALOMY
# Format: in vivo
# CONDITION DETAILS: dosage 320 g/ha, scored visually after 3 weeks vs untreated controls
PROPERTY: herbicidal activity ALOMY (%)
Form entry: value (%) — number only.

Which value of herbicidal activity ALOMY has been reported for CCS(=O)(=O)c1c(C(F)F)ccc(C(=O)Nc2nnnn2C)c1C in the records?
100

* * *

# Test system: Stellaria media
# EXPERIMENT: Pre-emergence herbicidal action, STEME
# Assay type: in vivo
# CONDITION DETAILS: dosage 320 g/ha, scored visually after 3 weeks vs untreated controls
PROPERTY: Herbicidal activity STEME (%)
Record the value in %, omitting the unit from your answer.

>>> experimental_result("CCn1nnnc1NC(=O)c1ccc(C(F)F)c([S+]([O-])CC)c1C1CC1 (stereo not shown)")
100
>>> experimental_result("Cn1nnnc1NC(=O)c1ccc(C(F)F)c([S+](C)[O-])c1Cl (stereo not shown)")
90
>>> experimental_result("Cn1nnnc1NC(=O)c1ccc(C(F)F)c(S(C)(=O)=O)c1Br")
100
>>> experimental_result("CCSc1c(C(F)F)ccc(C(=O)Nc2nnnn2C)c1Cl")
100

Missing value: Herbicidal activity STEME, Stellaria media, entry CC[S+]([O-])c1c(C(F)F)ccc(C(=O)Nc2nnnn2C)c1C (stereo not shown) . Fill in?
90

# returns recorded Herbicidal activity STEME (system: Stellaria media) for CC[S+]([O-])c1c(C(F)F)ccc(C(=O)Nc2nnnn2C)c1Br (stereo not shown)
100

API: value(readout=Herbicidal activity STEME, system=Stellaria media) for record CCS(=O)(=O)c1c(C(F)F)ccc(C(=O)Nc2nnc(C)o2)c1Br
100

Field: Herbicidal activity STEME (Stellaria media). Entry: CC[S+]([O-])c1c(C(F)F)ccc(C(=O)Nc2nnnn2C)c1Cl (stereo not shown)
100

# get_value(readout= Herbicidal activity STEME, system= Stellaria media) for CCc1c(C(=O)Nc2nnc(C)o2)ccc(C(F)F)c1SC
80

* * *

Reported values of herbicidal activity AMARE for individual entries
# System: Amaranthus retroflexus
# EXPERIMENT: Post-emergence herbicidal action, AMARE
# Assay type: in vivo
# CONDITION DETAILS: 80 g/ha, Table D
Report only the number, with the unit % understood.

Worked examples, 6 compounds total:
>>> experimental_result("CCS(=O)(=O)c1c(C(F)F)ccc(C(=O)Nc2nnnn2C)c1Cl")
100
>>> experimental_result("CCn1nnnc1NC(=O)c1ccc(C(F)F)c(SC)c1Cl")
100
>>> experimental_result("CCSc1c(C(F)F)ccc(C(=O)Nc2nnc(C)o2)c1Br")
100
>>> experimental_result("CSc1c(C(F)F)ccc(C(=O)Nc2ncnn2C)c1C1CC1")
90
>>> experimental_result("CCc1c(C(=O)Nc2nnnn2CC)ccc(C(F)F)c1SC")
100
>>> experimental_result("CCc1c(C(=O)Nc2nnnn2CC)ccc(C(F)F)c1S(C)(=O)=O")
100

Form: Entry = CSc1c(C(F)F)ccc(C(=O)Nc2ncnn2C)c1F | System = Amaranthus retroflexus | herbicidal activity AMARE = ____
100

Param readout = herbicidal activity AMARE; param system = Amaranthus retroflexus; param query = CC[S+]([O-])c1c(C(F)F)ccc(C(=O)Nc2ncnn2C)c1C (stereo not drawn) ; response: value
90

Under Amaranthus retroflexus: herbicidal activity AMARE value of CCc1c(C(=O)Nc2nnnn2C)ccc(C(F)F)c1SC ?
100

* * *

# Tested on: Amaranthus retroflexus
# EXPERIMENT: Post-emergence herbicidal action, AMARE
# Type: in vivo
# CONDITION DETAILS: 80 g/ha, Table D
PROPERTY: herbicidal activity AMARE (%)
Express it in %; write the number only.

Observe how each entry below is paired with its result.
>>> experimental_result("Cn1nnnc1NC(=O)c1ccc(C(F)F)c([S+](C)[O-])c1F (centres unmarked)")
90
>>> experimental_result("CCS(=O)(=O)c1c(C(F)F)ccc(C(=O)Nc2nnnn2C)c1C1CC1")
90
>>> experimental_result("CCn1nnnc1NC(=O)c1ccc(C(F)F)c([S+](C)[O-])c1F (centres unmarked)")
100
>>> experimental_result("CSc1c(C(F)F)ccc(C(=O)Nc2ncnn2C)c1C")
100

Can you look up the measured herbicidal activity AMARE of CCn1nnnc1NC(=O)c1ccc(C(F)F)c(SC)c1C1CC1 for me?
100

Could you share which herbicidal activity AMARE value was measured for Cn1ncnc1NC(=O)c1ccc(C(F)F)c(S(C)(=O)=O)c1F ?
90

Query: herbicidal activity AMARE; subject: CCCn1nnnc1NC(=O)c1ccc(C(F)F)c(S(C)(=O)=O)c1C
80

If you can, please state the reported herbicidal activity AMARE value of Cn1nnnc1NC(=O)c1ccc(C(F)F)c(S(C)(=O)=O)c1Br .
100

Consider the compound shown here: CCn1nnnc1NC(=O)c1ccc(C(F)F)c([S+]([O-])CC)c1C (centres unmarked) What is its recorded herbicidal activity AMARE?
100

Provenance of the data: patent US20230183193A1
